System: SK-OV-3 ovarian
Experiment: NCI tumour cell line growth inhibition, 48 h
measurement_kind: GI50

Solved entries:
INSERT INTO results (molecular_string, measurement_kind, recorded_value) VALUES
  ('Cn1cc(C2=C(c3cn(CCCCN)c4ccccc34)C(=O)NC2=O)c2ccccc21', 'GI50', '> 25 µM'),
  ('OCc1ccc(-c2ccc(-c3ccc(CO)o3)[se]2)o1', 'GI50', '> 100 µM'),
  ('[Cl-].[O-]/N=C(\c1ccccc1)c1ccccn1.[O-]/N=C(\c1ccccc1)c1ccccn1.[O-]/N=C(\c1ccccc1)c1ccccn1.[Sm+3]', 'GI50', '32.6 µM');

Task item: // query GI50 value for entry Cc1sc2nc(-c3ccncc3)c(/C=N/N=C(N)N)n2c1C
Reply: 62.2 µM

Task item: // query GI50 value for entry COc1ccc(S(=O)(=O)N2CC(C)(C)CN(S(=O)(=O)c3ccc(OC)cc3)C2C(=O)NO)cc1
Reply: > 20 µM
